protein stability index reference
tested on: Saccharomyces cerevisiae; assay: protein stability index of tFT-peptide fusion (C-terminal peptide) (PSI (0-1 scale)); higher = more stable (slower turnover); conditions: genetic background: wild type; temperature: 30 C
Reply briefly: the number, and no unit.

Missing value: protein stability index, Saccharomyces cerevisiae, entry "RTLHKKRLLAHR" . Fill in?
0.693

Missing value: protein stability index, Saccharomyces cerevisiae, entry "SPPTSPAPLPPP" . Fill in?
0.65

Missing value: protein stability index, Saccharomyces cerevisiae, entry "SEKKKKNKKNKK" . Fill in?
0.714

* * *

test system: Saccharomyces cerevisiae; assay: protein stability index of tFT-peptide fusion (C-terminal peptide) (PSI (0-1 scale)); higher = more stable (slower turnover); details: genetic background: cdc53-1; temperature: 37 C
protein stability index reference
Reply briefly: the number, and no unit.

Please review the entries below; each comes with its answer.
{"columns": ["sequence_data", "protein stability index"],
 "data": [
  ["YARFWYSKAFIC", 0.555],
  ["FVRGWGIVFSLA", 0.599]
]}

Can you look up the measured protein stability index of "MVAHTVRVKCGI" for me?
0.66

Can you look up the measured protein stability index of "ALVGEVLWFQLV" for me?
0.757

Can you look up the measured protein stability index of "LFFFRLFVFWVF" for me?
0.173

* * *

system: Saccharomyces cerevisiae; assay: protein stability index of tFT-peptide fusion (C-terminal peptide) (PSI (0-1 scale)); higher = more stable (slower turnover); conditions: genetic background: das1 deletion; temperature: 30 C
protein stability index reference

{"columns": ["sequence_data", "protein stability index"],
 "data": [
  ["FSCSRNVLVTVV", 0.229],
  ["SLARLRRICFNT", 0.648],
  ["FLFSSLFCFLFL", 0.474],
  ["LSILLFVQFFPP", 0.27]
]}

Can you look up the measured protein stability index of "KIKKLKNRRKLV" for me?
0.625

Can you look up the measured protein stability index of "LRNYKCLRLLIC" for me?
0.394

* * *

test system: Saccharomyces cerevisiae; experiment: protein stability index of tFT-peptide fusion (C-terminal peptide) (PSI (0-1 scale)); higher = more stable (slower turnover); settings: genetic background: wild type; temperature: 30 C
readout: protein stability index
Reply briefly: the number, and no unit.

Please review the entries below; each comes with its answer.
{"columns": ["sequence_data", "tested_target", "protein stability index"],
 "data": [
  ["WCGWGGVACLLL", "Saccharomyces cerevisiae", 0.681],
  ["LITDSQWLSSLS", "Saccharomyces cerevisiae", 0.731],
  ["GSRSPPPLRPPP", "Saccharomyces cerevisiae", 0.676],
  ["MLSVVSFVSCTC", "Saccharomyces cerevisiae", 0.255],
  ["RILVYRKENRKN", "Saccharomyces cerevisiae", 0.678]
]}

Can you look up the measured protein stability index of "LVGPPDPAHAVH" for me?
0.718

Can you look up the measured protein stability index of "QNKTQKSKKKKS" for me?
0.734

Can you look up the measured protein stability index of "RLLVSDSLLLGC" for me?
0.684

Can you look up the measured protein stability index of "WNGIDQSMSGRR" for me?
0.694

Can you look up the measured protein stability index of "ERGSRKKKDRRR" for me?
0.639

Can you look up the measured protein stability index of "VGGGFSSVVWLW" for me?
0.658

Can you look up the measured protein stability index of "VGPSGLIRCSFC" for me?
0.712

* * *

test system: Saccharomyces cerevisiae; experiment: protein stability index of tFT-peptide fusion (C-terminal peptide) (PSI (0-1 scale)); higher = more stable (slower turnover); conditions: genetic background: das1 deletion; temperature: 30 C
Please use the following protein stability index ranges when assigning a class: I: < 0.3; II: ≥ 0.3 and < 0.5; III: ≥ 0.5

Consider the worked cases shown below.
{"columns": ["sequence_data", "group_label"],
 "data": [
  ["WGRENLTRVKLE", "III"],
  ["VRFLLSLCCALL", "III"],
  ["VGGGGRFWVCVG", "III"],
  ["PPPLCSTCIRCC", "I"],
  ["KSSIGVWTLLIR", "II"],
  ["CFFVSLFFYIDC", "I"],
  ["TWGGGRVSLGVG", "II"]
]}

Let us examine a further case.
Category of "VYRVTGSWLMWV" :
II

* * *

protein stability index reference
system: Saccharomyces cerevisiae; test: protein stability index of tFT-peptide fusion (C-terminal peptide) (PSI (0-1 scale)); higher = more stable (slower turnover); conditions: genetic background: wild type; temperature: 30 C

Can you look up the measured protein stability index of "FKLSRTDSWMFT" for me?
0.712

Can you look up the measured protein stability index of "AGGWRGAEGCGG" for me?
0.782

Can you look up the measured protein stability index of "SMVLRTIKKRNI" for me?
0.661

Can you look up the measured protein stability index of "IMVLKAAVSKQE" for me?
0.69

Can you look up the measured protein stability index of "RCIASHRLSLRT" for me?
0.682

Can you look up the measured protein stability index of "DVHNCSLQAAKK" for me?
0.691

Can you look up the measured protein stability index of "PPAVPSTPLSPP" for me?
0.685

Can you look up the measured protein stability index of "SSVQVSMGTAAG" for me?
0.681

Can you look up the measured protein stability index of "LTSWYGNKLVAV" for me?
0.588

Can you look up the measured protein stability index of "GGYCQMFFLYFR" for me?
0.141

Can you look up the measured protein stability index of "VPLPGAAGATLL" for me?
0.773

Can you look up the measured protein stability index of "EGGKGGLVIVGG" for me?
0.709

Can you look up the measured protein stability index of "LSPPLSLPPASP" for me?
0.731

Can you look up the measured protein stability index of "YSFVKEFLNHRY" for me?
0.681

Can you look up the measured protein stability index of "VCWFMWSSVYGE" for me?
0.527

Can you look up the measured protein stability index of "WSSWFLWVIFRL" for me?
0.348

* * *

protein stability index reference
test system: Saccharomyces cerevisiae; assay: protein stability index of tFT-peptide fusion (C-terminal peptide) (PSI (0-1 scale)); higher = more stable (slower turnover); conditions: genetic background: wild type; temperature: 30 C
Reply briefly: the number, and no unit.

Please review the entries below; each comes with its answer.
{"columns": ["sequence_data", "protein stability index"],
 "data": [
  ["MERLQKGWSLAK [MDY2 C-terminal 12 aa]", 0.684],
  ["DASVEQNILAVL [RQT4 C-terminal 12 aa]", 0.69],
  ["PTIVGGLYYQRP [AAR2 C-terminal 12 aa]", 0.696],
  ["FFTIEKYSVRRS [YOL013W-A C-terminal 12 aa]", 0.681],
  ["YLKLRGANFVLK [IES6 C-terminal 12 aa]", 0.684]
]}

Missing value: protein stability index, Saccharomyces cerevisiae, entry LGMINTVVSLDR [YBR221W-A C-terminal 12 aa] . Fill in?
0.672

Missing value: protein stability index, Saccharomyces cerevisiae, entry DLEDEIEMEDVV [TFG2 C-terminal 12 aa] . Fill in?
0.711

* * *

system: Saccharomyces cerevisiae; test: protein stability index of tFT-peptide fusion (C-terminal peptide) (PSI (0-1 scale)); higher = more stable (slower turnover); settings: genetic background: wild type; temperature: 30 C
readout: protein stability index
Reply briefly: the number, and no unit.

{"columns": ["sequence_data", "tested_target", "readout", "readout_value"],
 "data": [
  ["SKIPSSLYIYHM [YGL042C C-terminal 12 aa]", "Saccharomyces cerevisiae", "protein stability index", 0.619],
  ["MTQWLEISILMN [YCL001W-A C-terminal 12 aa]", "Saccharomyces cerevisiae", "protein stability index", 0.319],
  ["YLKRCCYHPMQN [YIL020C-A C-terminal 12 aa]", "Saccharomyces cerevisiae", "protein stability index", 0.679],
  ["IKRRSNVGVVML [NMT1 C-terminal 12 aa]", "Saccharomyces cerevisiae", "protein stability index", 0.636]
]}

Okay, next one:
Can you look up the measured protein stability index of KYNSQKRATTPA [COQ4 C-terminal 12 aa] for me?
0.67

* * *

system: Saccharomyces cerevisiae; assay: protein stability index of tFT-peptide fusion (C-terminal peptide) (PSI (0-1 scale)); higher = more stable (slower turnover); settings: genetic background: das1 deletion; temperature: 30 C
protein stability index reference
Reply briefly: the number, and no unit.

{"columns": ["sequence_data", "tested_target", "protein stability index"],
 "data": [
  ["SLKPSEKKLYYL [NTH2 C-terminal 12 aa]", "Saccharomyces cerevisiae", 0.721],
  ["KPRKKAKALPKT [RTT109 C-terminal 12 aa]", "Saccharomyces cerevisiae", 0.689],
  ["FDLIKLALQRKK [AGX1 C-terminal 12 aa]", "Saccharomyces cerevisiae", 0.712]
]}

Can you look up the measured protein stability index of YKDDEDDDIEMT [PDS5 C-terminal 12 aa] for me?
0.679
